system: NCI-H23; test: NCI tumour cell line growth inhibition, 48 h
Calls of active or inactive are those of the source. Rule as the data show it: active = GI50 up to about 1.1 µM and inactive = higher.
Outcomes: active, inactive

compound | study-target | label
c1ccc2[nH]c3nc4ccccc4c-3cc2c1 | NCI-H23 | active
O=c1c2cc([N+](=O)[O-])ccc2n2n1Cc1ccccc1C2 | NCI-H23 | inactive
O=C1OC(C2=CC(=O)c3ccccc3C2=O)C(Cl)=C1Cl (centres undefined) | NCI-H23 | inactive
O=C1c2ccccc2-c2c1c1ccccc1c(=O)n2Cc1ccco1 | NCI-H23 | inactive

###

test system: SN12C; assay: NCI tumour cell line growth inhibition, 48 h
Active and inactive are the calls of the source. Cut-off read from the data, not from the text of the source: active = GI50 up to about 1.1 µM and inactive = higher. Where a SMILES comes first, the peptide text is derived from it. The star is where a group is joined. Boc = CC(C)(C)OC(=O)*
Possible outcomes: active, inactive

compound | study-target | label
CC(C)[C@](O)(C(=O)OCC1CC[N+]2([O-])CC[C@@H](O)C12)[C@H](C)O (stereo partly drawn) | SN12C | inactive
Cc1cc(O)c2c3c(ccc2c1)C(=O)c1c(O)cccc1C3=O | SN12C | inactive
O=C(O)c1cccc(OCCO)c1 | SN12C | inactive
O=C1/C(=C/c2c(Cl)[nH]c3ccccc23)c2ccccc2N1c1ccccc1 | SN12C | inactive
CN(C)CC(C)(C)C(=O)/C=C/c1ccc(/C=C/C(=O)C(C)(C)CN(C)C)cc1 | SN12C | inactive
COc1ccc(/C(Cl)=C/c2ccc(Cl)c(Cl)c2)cc1 | SN12C | inactive
CO[C@H]1[C@@H](O)[C@@H](O)O[C@@H](O[C@H]2CC[C@@]3(C)[C@H](CC[C@@H]4[C@@H]3[C@H](O)C[C@]3(C)[C@@H](C5=CC(=O)OC5)CC[C@]43O)C2)[C@@H]1O | SN12C | active
Cc1cc(Cl)ccc1N1C(=O)C(=O)C(c2nc3ccccc3s2)/C(=N\NC(=O)c2ccccc2O)C1=O (stereo not drawn) | SN12C | inactive
N#CN=C(NCc1ccccc1)NCc1ccccc1 | SN12C | inactive
Cc1nnc(CC#N)n1NC(=O)CC#N | SN12C | inactive
COc1ccc(CNc2nc(NCc3ccc(OC)cc3)nc(NC3CCCCC3)n2)cc1 | SN12C | inactive
C=C(C)C(=O)OC1C[C@H](COC(C)=O)C2CC=C(C)C2C2OC(=O)C(=C)[C@H]12 (stereo partly drawn) | SN12C | inactive
CC(C)(C)OC(=O)NC(Cc1ccc(O)cc1)C(=O)N1CCCC1C(=O)O (stereo not drawn) (Boc-Tyr-Pro-OH; configuration not given here) | SN12C | inactive
NC(=O)NOCC1NC(=O)NC1=O (stereo not drawn) | SN12C | inactive
NNC(=O)CCSc1ccccc1 | SN12C | inactive
O=C(Nc1ccc(Br)cc1)c1c(-c2ccccc2)c2ccc(O)cc2oc1=O | SN12C | inactive
Nc1ncnc2c1nnn2C1OC(CO)C(O)C1O (stereo not drawn) | SN12C | inactive
Cc1ccnc(NS(=O)(=O)c2ccc(N=[N+]=[N-])cc2)n1 | SN12C | inactive
CC(CC(C)(C)[N+](C)(C)C)[N+](C)(C)C (stereo not drawn) | SN12C | inactive
O=C1C2SC34c5c2c2ccccc2n5CCC3CCCN14 (stereo not drawn) | SN12C | inactive
COc1ccc(/N=C/C=C/Nc2ccc(OC)cc2)cc1 | SN12C | inactive
O=C1Cc2c(-c3ccccc3)cc(-c3ccc(Cl)cc3)nc2-c2ccccc2N1 | SN12C | inactive
COc1ccccc1/C=C/c1c(N)ncnc1Nc1cccc(Cl)c1 | SN12C | inactive
CC(=O)Oc1ccc2[nH]c3c(C)c4cccc-4ccc3c2c1 | SN12C | inactive
Cc1cccc(C(C)(C)C)c1NC(=O)CC1Sc2ccccc2NC1=O (stereo not drawn) | SN12C | inactive
CN(C)c1ccc(C(Cc2ccccc2)C2NC(=S)NC2=O)cc1 (stereo not drawn) | SN12C | inactive
O=C1Sc2ccc(Br)cc2C(=O)Sc2ccccc21 | SN12C | inactive
NC(=O)C1C(=O)Oc2cccnc21 (stereo not drawn) | SN12C | inactive
CCSCN(C)c1nc(N(C)C)nc(N(C)C)n1 | SN12C | inactive
[O-][n+]1onc2c1/C(=N/O)CCC2 | SN12C | inactive
CC(=O)NC1C(OCc2ccccc2)OC(CO)C(O)C1OCC(=O)N1CCCC1C(=O)NC(CCC(=O)NCCCCCNc1c2ccccc2nc2cccc([N+](=O)[O-])c12)C(N)=O (stereo not drawn) | SN12C | active
CNc1cc([N+](=O)[O-])ccc1C(=O)N1CCC[C@H]1CO | SN12C | inactive
O=S(=O)(O)CS(=O)(=O)OCCCl | SN12C | inactive
Cc1ccc(SSc2ccc(C)cc2C(=O)O)c(C(=O)O)c1 | SN12C | inactive
COc1cccc2c1[C@H]1CO[C@H]3C4C[C@H](C(=O)O)C([C@@H](C2)N13)N4C (stereo partly drawn) | SN12C | inactive
COC(=O)C1(C)CCc2c(OC)ccc(OC)c2C1=O (stereo not drawn) | SN12C | inactive
CCCOC(=O)C1CCC(=O)N1C(=O)C(Cl)Cl (stereo not drawn) | SN12C | inactive
C[N+](C)(CCO)CCN1c2ccccc2Sc2ccccc21 | SN12C | inactive
O=C1OC(c2ccccc2)=N/C1=C\c1cccc2ccccc12 | SN12C | inactive
COc1ccc(/C(Cl)=C(\C=O)c2cc(OC)c(OC)c(OC)c2)cc1OC | SN12C | inactive
C=C(CC(NC(=O)c1ccc(C(CC)Cc2cnc3nc(N)nc(N)c3n2)cc1)C(=O)O)C(=O)O (stereo not drawn) | SN12C | active
Clc1ccc(CCNC2(c3cc4ccccc4s3)CCCCC2)cc1Cl | SN12C | inactive
O=c1cc(N2CCN(c3cc(=O)n4ccccc4n3)CC2)oc2ccccc12 | SN12C | inactive

Reference source for all entries: ChEMBL document CHEMBL1201862
